Answer each item with its documented Activity.
Target: Adenosine receptor A1 (Homo sapiens) (UniProt P30542)
Sequence (P30542 whole entry): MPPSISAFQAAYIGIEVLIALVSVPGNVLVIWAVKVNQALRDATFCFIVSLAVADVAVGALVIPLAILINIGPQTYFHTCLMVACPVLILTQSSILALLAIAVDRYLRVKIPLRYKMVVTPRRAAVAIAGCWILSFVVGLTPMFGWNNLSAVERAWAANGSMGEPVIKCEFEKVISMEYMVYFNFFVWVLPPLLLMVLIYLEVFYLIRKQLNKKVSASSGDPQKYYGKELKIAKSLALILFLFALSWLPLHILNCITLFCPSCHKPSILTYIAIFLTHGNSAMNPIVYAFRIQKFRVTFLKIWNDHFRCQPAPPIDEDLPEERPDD
Experiment: Percent decrease in adenosine-A1-receptor binding using CPDPX
Set-up: scale not given: the % may be the effect or the level left
Number first, unit second: that is the form wanted.

The cases that follow already have their Activity on record.
INSERT INTO measurements (compound, assay_target, recorded_value) VALUES
  ('COc1cc2c(cc1OC)C1c3[nH]c4ccccc4c3CCN1CC2 (centres undefined)', 'Adenosine receptor A1 (Homo sapiens) (UniProt P30542)', '26%'),
  ('C[N+]12CCc3c([nH]c4ccccc34)C1c1[nH]c3ccccc3c1CC2 (centres undefined)', 'Adenosine receptor A1 (Homo sapiens) (UniProt P30542)', '11%'),
  ('c1ccc2c3c([nH]c2c1)C1c2[nH]c4ccccc4c2CCN1CC3', 'Adenosine receptor A1 (Homo sapiens) (UniProt P30542)', '17%');

In: Hello, I am looking for reported Activity with Adenosine receptor A1 (Homo sapiens) (UniProt P30542) for c1ccc2c(c1)CCN1CCc3c([nH]c4ccccc34)C21 (centres undefined) . Could you help?
Out: 13%

# credit: ChEMBL document CHEMBL1133101
